Measured melting point, listed per entry for reference.

// sample O=C1C=C(CCCCCCCCCCCO)CCC1 [Preparation Example 2, 3-(11-hydroxyundecyl)-2-cyclohexen-1-one] , its melting point was 34 to 35 °C

// sample O=C1C=C(CCCCCCCCCCCCCCO)CCC1 , its melting point was 44 to 45 °C

// sample O=C1C=C(CCCCCCCCCCCCO)CCC1 [Preparation Example 3, 3-(12-hydroxydodecyl)-2-cyclohexen-1-one] , its melting point was 35 to 36 °C

// sample O=C1C=C(CCCCCCCCCCCCCO)CCC1 , its melting point was 42 to 43 °C
